# PROCEDURE_DETAILS: Enzymatic hydrolysis in rat liver homogenate at 37°C (HPLC)
# Type: in vitro ADME, Sprague-Dawley rats
# EXPERIMENTAL_CONTEXT: 20% rat liver homogenate, pH 7.4, 37°C
OBSERVABLE: Rates of hydrolysis in liver homogenate K ± S.E.

# Rates of hydrolysis in liver homogenate K ± S.E. of CC(C)OC(=O)C(C(=O)OC1CC2CCC(C1)N2C)c1ccccc1 (racemic) = 97.2 ± 0.76 x 10^-3 min^-1

Next:
# Rates of hydrolysis in liver homogenate K ± S.E. of CCOC(=O)C(C(=O)OC1CC2CCC(C1)[N+]2(C)C)c1ccccc1 (racemic) = 10.5 ± 0.28 x 10^-2 min^-1

---

# PROCEDURE_DETAILS: Enzymatic hydrolytic cleavage rates in human plasma at 37°C (HPLC)
# Format: in vitro ADME
OBSERVABLE: observed first order hydrolytic rate constants (K) ± S.E.M.

Reference set, count: 3
# observed first order hydrolytic rate constants (K) ± S.E.M. of CN1C2CCC1CC(OC(=O)C(C(=O)OC1CCCCC1)c1ccccc1)C2 (racemic) = 4.44 ± 0.4 x 10^-5 min^-1

# observed first order hydrolytic rate constants (K) ± S.E.M. of CC(C)OC(=O)C(C(=O)OC1CC2CCC(C1)N2C)c1ccccc1 (racemic) = 6.27 ± 0.3 x 10^-5 min^-1

# observed first order hydrolytic rate constants (K) ± S.E.M. of C[N+]1(C)C2CCC1CC(OC(=O)C(C(=O)OC1CCCCC1)c1ccccc1)C2 (racemic) = 6.31 ± 0.8 x 10^-5 min^-1

Now for the compound whose observed first order hydrolytic rate constants (K) ± S.E.M. we want.
# observed first order hydrolytic rate constants (K) ± S.E.M. of CCOC(=O)C(C(=O)OC1CC2CCC(C1)N2C)c1ccccc1 (racemic) = 15.0 ± 0.3 x 10^-5 min^-1

---

# PROCEDURE_DETAILS: Enzymatic hydrolysis in rat liver homogenate at 37°C (HPLC)
# Assay type: in vitro ADME, Sprague-Dawley rats
# EXPERIMENTAL_CONTEXT: rat, liver homogenate, pH 7.4, rat liver homogenate, 37°C; average of three runs; read-out: t 1/2 (Min) RAT LIVER HOMOGENATE, 37°C
OBSERVABLE: half-life (min)
Output spec: scalar in min, unitless text.

Reference set, count: 3
# half-life of CCOC(=O)C(C(=O)OC1CC2CCC(C1)N2C)c1ccccc1 (racemic) = 3.48

# half-life of CC(C)OC(=O)C(C(=O)OC1CC2CCC(C1)N2C)c1ccccc1 (racemic) = 7.12

# half-life of C[N+]1(C)C2CCC1CC(OC(=O)C(C(=O)OC1CCCCC1)c1ccccc1)C2 (racemic) = 66.8

Now for the compound whose half-life we want.
# half-life of CN1C2CCC1CC(OC(=O)C(C(=O)OC1CCCCC1)c1ccccc1)C2 (racemic) = 18.7

---

The reader will find reported half-life values listed item by item below.
# PROCEDURE_DETAILS: Hydrolytic rate constants in aqueous buffered solution at pH 12, 37°C (HPLC)
# Type: physicochemical
# EXPERIMENTAL_CONTEXT: 0.01 m naoh buffer; 0.01 M sodium hydroxide at pH 12 and 37°C; read-out: half lives (t 1/2)
Output spec: scalar in h, unitless text.

# half-life of CN1C2CCC1CC(OC(=O)C(C(=O)OC1CCCCC1)c1ccccc1)C2 (racemic) = 3.03

# half-life of CN1C2CCC1CC(OC(=O)C(C(=O)O)c1ccccc1)C2 (racemic) = 5.83

# half-life of C[N+]1(C)C2CCC1CC(OC(=O)C(C(=O)OC1CCCCC1)c1ccccc1)C2 (racemic) = 0.0213

---

The reader will find reported Rates of hydrolysis in liver homogenate K ± S.E. values listed item by item below.
# PROCEDURE_DETAILS: Enzymatic hydrolysis in rat liver homogenate at 37°C (HPLC)
# Assay type: in vitro ADME, Sprague-Dawley rats
# EXPERIMENTAL_CONTEXT: 20% rat liver homogenate, pH 7.4, 37°C

Reference set, count: 2
# Rates of hydrolysis in liver homogenate K ± S.E. of CCOC(=O)C(C(=O)OC1CC2CCC(C1)N2C)c1ccccc1 (racemic) = 1.99 ± 0.996 x 10^-1 min^-1

# Rates of hydrolysis in liver homogenate K ± S.E. of CN1C2CCC1CC(OC(=O)C(C(=O)OC1CCCCC1)c1ccccc1)C2 (racemic) = 37.0 ± 0.3 x 10^-3 min^-1

Now for the compound whose Rates of hydrolysis in liver homogenate K ± S.E. we want.
# Rates of hydrolysis in liver homogenate K ± S.E. of C[N+]1(C)C2CCC1CC(OC(=O)C(C(=O)OC1CCCCC1)c1ccccc1)C2 (racemic) = 10.4 ± 0.23 x 10^-3 min^-1
